Please provide measured remaining target (mRNA or protein) (fraction of control) for the entries that follow.
- target_under_test: PRKACA; further: test concentration or dose not given here
- details: ASO
These antisense oligonucleotides have a phosphorothioate backbone; sugars and methylation of C are not fully specified.
A bare number is all that is needed in reply.

Task item: I have this sequence here, `CTTCCTCATAGTCGTCAAAG` , and I need its recorded remaining target (mRNA or protein) (fraction of control).
Reply: 0.68

Task item: So what's the measured remaining target (mRNA or protein) (fraction of control) for this one? `CCCATCGCGGCGGCGGCGGC`
Reply: 0.53

Task item: What value of remaining target (mRNA or protein) (fraction of control) has been recorded for this entry: `GCTTCTCTTTAAAATGGATT`
Reply: 0.84

Task item: What does the record list as remaining target (mRNA or protein) (fraction of control) for `GGCGGCGTTGCCCATCGCGG` ?
Reply: 0.31

Task item: For `CGGCGGCGGCGTTGCCCATC` , what is its reported remaining target (mRNA or protein) (fraction of control)?
Reply: 0.21

Task item: Dear colleague, I am looking for the recorded remaining target (mRNA or protein) (fraction of control) of the following sequence: `GCTTGCAGGATGCGCTTTTC`
Reply: 0.34

Task item: Which measured remaining target (mRNA or protein) (fraction of control) value corresponds to `GTTGCCCATCGCGGCGGCGG` ?
Reply: 0.53

Task item: Return reported remaining target (mRNA or protein) (fraction of control); argument: `GAACATCTCCCCGCCGGGCA`
Reply: 0.87

Task item: What does the record list as remaining target (mRNA or protein) (fraction of control) for `TGCAGGGATGCCCTCCCCAC` ?
Reply: 0.35

Task item: // returns reported remaining target (mRNA or protein) (fraction of control) for input `TGCCCATCGCGGCGGCGGCG`
Reply: 0.71

Task item: Looking for the measured remaining target (mRNA or protein) (fraction of control) of `CCAGCATCACCCGCCCGAAG` , can you help?
Reply: 0.34

Task item: Quick one: remaining target (mRNA or protein) (fraction of control) for `AAGCAACCCACTGAACATGT` ?
Reply: 0.62

Task item: Request the reported remaining target (mRNA or protein) (fraction of control) associated with `GGAGCAGCTGGTGTTTCTGT`
Reply: 0.61

Task item: Quick one: remaining target (mRNA or protein) (fraction of control) for `GCGGCGGCGTTGCCCATCGC` ?
Reply: 0.33

Task item: What does the record list as remaining target (mRNA or protein) (fraction of control) for `GCGTTGCCCATCGCGGCGGC` ?
Reply: 0.36

Task item: Given the sequence `CCTTGAACCCCGGGCCGTGG` , what is its reported remaining target (mRNA or protein) (fraction of control)?
Reply: 0.44

Task item: I have this sequence here, `GGCATGCCCCTAAAACTCAG` , and I need its recorded remaining target (mRNA or protein) (fraction of control).
Reply: 0.55

Task item: Which remaining target (mRNA or protein) (fraction of control) value is on record for `AGCACAAATGAGAAAGTGGG` ?
Reply: 0.93

Task item: Would you mind telling me what remaining target (mRNA or protein) (fraction of control) value was observed for `ACCCTCGCAGGATTGGCAGA` ?
Reply: 0.47

Task item: // returns reported remaining target (mRNA or protein) (fraction of control) for input `CTTCTGTTTGTCGAGGATCT`
Reply: 0.49

Task item: Could you share which remaining target (mRNA or protein) (fraction of control) value was measured for `TTGGCGCTTCGTTCATTTGC` ?
Reply: 0.61

Task item: Fill in: remaining target (mRNA or protein) (fraction of control) of `CGCTGCTGGGAGGAAAGACT` is ___
Reply: 0.48

Task item: Look at this sequence and give its reported remaining target (mRNA or protein) (fraction of control). `CATCGCGGCGGCGGCGGCCG`
Reply: 0.51

Task item: Entry `TCCTTCAAGTCAGAGCTGAA` has what remaining target (mRNA or protein) (fraction of control)?
Reply: 0.56

Task item: Need remaining target (mRNA or protein) (fraction of control) of `CAAACTGATCCAAGTGGGCT` , thanks.
Reply: 0.27

Task item: State the recorded remaining target (mRNA or protein) (fraction of control) for this entry: `ATTCTTTCACGCTCTCCTGC`
Reply: 0.97

Task item: GET /values?readout=remaining target (mRNA or protein) (fraction of control)&item= `CAGGCAGCCCCTCCCCAGCA`
Reply: 0.51

Task item: # query: remaining target (mRNA or protein) (fraction of control) of entry `TCGCGGCGGCGGCGGCCGGG`
Reply: 0.81

Task item: Which remaining target (mRNA or protein) (fraction of control) value is on record for `CGGCGTTGCCCATCGCGGCG` ?
Reply: 0.47

Task item: Item under review: `TGGCTGCGGCCGGCGGCCCG` . Reported remaining target (mRNA or protein) (fraction of control)?
Reply: 0.51

Task item: Reported remaining target (mRNA or protein) (fraction of control), sequence `AAACCACTTGTGGTTCTTGA` : ____
Reply: 0.66
